- TARGET_SYSTEM: Human rhinovirus A protease (Human rhinovirus sp.) (UniProt Q4U254)
- Sequence (Q4U254 as listed by the source): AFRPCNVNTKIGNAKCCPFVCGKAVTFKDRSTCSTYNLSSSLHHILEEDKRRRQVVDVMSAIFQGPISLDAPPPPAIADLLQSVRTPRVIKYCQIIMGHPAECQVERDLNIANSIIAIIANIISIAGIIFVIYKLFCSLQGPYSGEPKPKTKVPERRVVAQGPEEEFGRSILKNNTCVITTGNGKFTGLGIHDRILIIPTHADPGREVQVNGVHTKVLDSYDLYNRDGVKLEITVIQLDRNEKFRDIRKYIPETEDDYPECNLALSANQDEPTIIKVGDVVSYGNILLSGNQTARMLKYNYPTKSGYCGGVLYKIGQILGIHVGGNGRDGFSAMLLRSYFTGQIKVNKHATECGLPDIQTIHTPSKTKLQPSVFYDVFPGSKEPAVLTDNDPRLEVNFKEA
- PROTOCOL: Binding affinity on human Rhinovirus 3C protease (rhinovirus serotype 14)
RECORDED_ENDPOINT: K obs / 1 (M⁻¹ s⁻¹)

line_notation=CCOC(=O)/C=C/[C@H](CCC(N)=O)NC(=O)[C@H](Cc1ccccc1)NC(=O)[C@@H](NC(=O)OCc1ccccc1)C(C)(C)CO observed=40000
line_notation=CCOC(=O)/C=C/[C@H](CCC(N)=O)NC(=O)[C@H](Cc1ccccc1)NC(=O)CNC(=O)OCc1ccccc1 observed=3800
line_notation=CCOC(=O)/C=C/[C@H](CCC(N)=O)NC(=O)[C@H](CC1CCCCC1)NC(=O)[C@H](CC(C)C)NC(=O)OCc1ccccc1 observed=16300
line_notation=CCOC(=O)/C=C/[C@H](CCC(N)=O)NC(=O)[C@H](Cc1ccccc1)NC(=O)[C@H](CCC(=O)O)NC(=O)OCc1ccccc1 observed=78900

###

- Test system: rhinovirus B14
- PROTOCOL: Cytotoxic activity against HRV-14 in cell culture
- Format: functional, rhinovirus 14
- CONDITION_LABEL: Rhinovirus B
RECORDED_ENDPOINT: CC50

compound=CCOC(=O)/C=C/[C@H](CCC(N)=O)NC(=O)[C@H](Cc1ccccc1)NC(=O)[C@@H](NC(=O)OCc1ccccc1)C(C)(C)C observed="178 µM"
compound=CCOC(=O)/C=C/[C@H](CCC(N)=O)NC(=O)[C@H](Cc1ccccc1)NC(=O)[C@H](CC(=O)N(C)C)NC(=O)OCc1ccccc1 observed="> 320 µM"
compound=CCOC(=O)/C=C/[C@H](CCC(N)=O)NC(=O)[C@H](Cc1ccc(OCC)cc1)NC(=O)[C@H](CC(C)C)NC(=O)OCc1ccccc1 observed="> 320 µM"
compound=CCOC(=O)/C=C/[C@H](CNC(C)=O)NC(=O)[C@H](Cc1ccccc1)NC(=O)[C@H](CC(C)C)NC(=O)OCc1ccccc1 observed="> 320 µM"
compound=CCOC(=O)/C=C/[C@H](CCC(N)=O)NC(=O)[C@H](Cc1ccccc1)NC(=O)[C@H](CC(C)C)NC(=O)CCO observed="> 320 µM"
compound=CCOC(=O)/C=C/[C@H](CCC(N)=O)NC(=O)[C@H](Cc1ccccc1)NC(=O)[C@H](CC(C)C)NC(=O)CO observed="> 320 µM"
compound=CCOC(=O)/C=C/[C@H](CCC(N)=O)NC(=O)[C@H](Cc1ccc(CCO)cc1)NC(=O)[C@H](CC(C)C)NC(=O)OCc1ccccc1 observed="> 320 µM"
compound="CCOC(=O)/C=C/[C@H](CCC(C)O)NC(=O)[C@H](Cc1ccccc1)NC(=O)[C@H](CC(C)C)NC(=O)OCc1ccccc1 (stereo partly drawn)" observed="> 100 µM"
compound=CCOC(=O)/C=C/[C@H](CCC(N)=O)NC(=O)[C@H](C)NC(=O)[C@H](CC(C)C)NC(=O)OCc1ccccc1 observed="> 320 µM"
compound=CCOC(=O)/C=C/[C@H](CCC(N)=O)NC(=O)[C@H](Cc1ccc(C#N)cc1)NC(=O)[C@H](CC(C)C)NC(=O)OCc1ccccc1 observed="> 320 µM"
compound=CCOC(=O)/C=C/[C@H](CCC(N)=O)NC(=O)[C@H](CSC)NC(=O)[C@H](CC(C)C)NC(=O)OCc1ccccc1 observed="> 320 µM"
compound=CCOC(=O)/C=C/[C@H](CCC(N)=O)NC(=O)[C@H](Cc1ccccc1)NC(=O)[C@H](CC(C)C)NC(=O)C(C)(C)C observed="> 100 µM"
compound=CCOC(=O)/C=C/[C@H](CCC(N)=O)NC(=O)[C@H](Cc1ccccc1)NC(=O)[C@H](CC(C)C)NC(=O)SCc1ccccc1 observed="320 µM"
compound="CCOC(=O)/C=C/[C@H](CC[S+](C)[O-])NC(=O)[C@H](Cc1ccccc1)NC(=O)[C@H](CC(C)C)NC(=O)OCc1ccccc1 (stereo partly drawn)" observed="> 100 µM"
compound=CCOC(=O)/C=C/[C@H](CCC(N)=O)NC(=O)[C@H](Cc1ccc(OP(=O)(O)O)cc1)NC(=O)[C@H](CC(C)C)NC(=O)OCc1ccccc1 observed="> 320 µM"
compound=CCOC(=O)/C=C/[C@H](CCC(N)=O)NC(=O)[C@H](Cc1ccccc1)NC(=O)OCc1ccccc1 observed="> 100 µM"
compound=CCOC(=O)/C=C/[C@H](CCC(N)=O)NC(=O)[C@H](Cc1ccc(OC(C)=O)cc1)NC(=O)[C@H](CC(C)C)NC(=O)OCc1ccccc1 observed="> 320 µM"
compound=CCC[C@H](NC(=O)[C@H](CC(C)C)NC(=O)OCc1ccccc1)C(=O)N[C@H](/C=C/C(=O)OCC)CCC(N)=O observed="> 320 µM"
compound=CCOC(=O)/C=C/[C@H](CCC(N)=O)NC(=O)[C@H](Cc1ccccc1)NC(=O)[C@H](CC(=O)O)NC(=O)OCc1ccccc1 observed="> 320 µM"
compound=CCOC(=O)/C=C/[C@H](CCS(C)(=O)=O)NC(=O)[C@H](Cc1ccccc1)NC(=O)[C@H](CC(C)C)NC(=O)OCc1ccccc1 observed="> 100 µM"
compound=CCOC(=O)/C=C/[C@H](CCC(N)=O)NC(=O)[C@H](Cc1ccccc1)NC(=O)[C@H](CCC(=O)O)NC(=O)OCc1ccccc1 observed="> 320 µM"
compound=CCOC(=O)/C=C/[C@H](CCC(N)=O)NC(=O)[C@H](Cc1ccccc1)NC(=O)[C@H](CC(C)C)NC(=O)OC observed="> 320 µM"
compound=CCOC(=O)/C=C/[C@H](CCC(N)=O)NC(=O)[C@H](Cc1ccccc1)NC(=O)[C@H](CC(C)C)NC(=O)[C@H](C)NC(C)=O observed="> 100 µM"
compound=CCOC(=O)/C=C/[C@H](CCC(N)=O)NC(=O)[C@H](Cc1ccccc1)NC(=O)[C@H](CC(C)C)NC(=O)OC1CCCCC1 observed="> 100 µM"
compound=CCOC(=O)/C=C/[C@H](CCC(N)=O)NC(=O)[C@H](Cc1cccs1)NC(=O)[C@H](CC(C)C)NC(=O)OCc1ccccc1 observed="> 100 µM"
compound=CCOC(=O)/C=C/[C@H](CCC(N)=O)NC(=O)[C@H](Cc1ccccc1)NC(=O)[C@H](Cc1ccccc1)NC(=O)OCc1ccccc1 observed="> 320 µM"
compound=CCOC(=O)/C=C/[C@H](CCC(N)=O)NC(=O)[C@H](Cc1nccn1C)NC(=O)[C@H](CC(C)C)NC(=O)OCc1ccccc1 observed="> 320 µM"
compound=CCOC(=O)/C=C/[C@H](CCC(=O)NC(c1ccccc1)(c1ccccc1)c1ccccc1)NC(=O)[C@H](Cc1ccccc1)NC(=O)[C@H](CC(C)C)NC(=O)OCc1ccccc1 observed="> 320 µM"

###

- Tested on: rhinovirus B14
- PROTOCOL: Cytotoxic activity against HRV-14 in cell culture
- Format: functional, rhinovirus 14
- CONDITION_LABEL: Rhinovirus B
RECORDED_ENDPOINT: CC50

line_notation=CCOC(=O)/C=C/[C@H](CCC(=O)O)NC(=O)[C@H](Cc1ccccc1)NC(=O)[C@H](CC(C)C)NC(=O)OCc1ccccc1 recorded_endpoint=CC50 observed="> 100 µM"
line_notation=CCOC(=O)/C=C/[C@H](CCC(=O)NC)NC(=O)[C@H](Cc1ccccc1)NC(=O)[C@H](CC(C)C)NC(=O)OCc1ccccc1 recorded_endpoint=CC50 observed="> 100 µM"
line_notation=CCOC(=O)/C=C/[C@H](CCC(N)=O)NC(=O)[C@H](Cc1ccccc1)NC(=O)[C@H](CC(C)C)NC(=O)SC recorded_endpoint=CC50 observed="> 320 µM"
line_notation=CCOC(=O)/C=C/[C@H](CCC(N)=O)NC(=O)[C@H](Cc1ccccc1)NC(=O)[C@H](CCCCN)NC(=O)OCc1ccccc1 recorded_endpoint=CC50 observed="> 320 µM"
line_notation=CCOC(=O)/C=C/[C@H](CCC(N)=O)NC(=O)[C@H](Cc1ccccc1)NC(=O)CNC(=O)OCc1ccccc1 recorded_endpoint=CC50 observed="> 320 µM"
line_notation=CCOC(=O)/C=C/[C@H](CCC(N)=O)NC(=O)[C@H](Cc1ccccc1)NC(=O)[C@H](CSCc1ccccc1)NC(=O)OCc1ccccc1 recorded_endpoint=CC50 observed="> 100 µM"
line_notation=CCOC(=O)/C=C/[C@H](CCC(=O)N(C)C)NC(=O)[C@H](Cc1ccccc1)NC(=O)[C@H](CC(C)C)NC(=O)OCc1ccccc1 recorded_endpoint=CC50 observed="> 100 µM"
line_notation=CCOC(=O)/C=C/[C@H](CCC(N)=O)NC(=O)[C@H](Cc1ncc[nH]1)NC(=O)[C@H](CC(C)C)NC(=O)OCc1ccccc1 recorded_endpoint=CC50 observed="> 320 µM"
line_notation=CCOC(=O)/C=C/[C@H](CCC(N)=O)NC(=O)[C@H](Cc1ccccc1)NC(=O)[C@H](CCN1CCOCC1)NC(=O)OCc1ccccc1 recorded_endpoint=CC50 observed="> 100 µM"
line_notation=CCOC(=O)/C=C/[C@H](CCC(N)=O)NC(=O)[C@H](CCC(=O)O)NC(=O)[C@H](CC(C)C)NC(=O)OCc1ccccc1 recorded_endpoint=CC50 observed="> 320 µM"
line_notation=CCOC(=O)/C=C/[C@H](CCC(N)=O)NC(=O)[C@H](Cc1ccccc1)NC(=O)[C@H](CC(C)C)NC(C)=O recorded_endpoint=CC50 observed="> 320 µM"
line_notation=CCOC(=O)/C=C/[C@H](CCC(N)=O)NC(=O)[C@H](Cc1ccccc1)NC(=O)[C@@H](NC(=O)OCc1ccccc1)[C@H](C)O recorded_endpoint=CC50 observed="> 320 µM"
line_notation=CCOC(=O)/C=C/[C@H](CCC(N)=O)NC(=O)[C@H](Cc1ccccc1)NC(=O)[C@H](CC(C)C)NC(=O)c1ccc2ccccc2c1 recorded_endpoint=CC50 observed="> 320 µM"
line_notation=CCOC(=O)/C=C/[C@H](CO)NC(=O)[C@H](Cc1ccccc1)NC(=O)[C@H](CC(C)C)NC(=O)OCc1ccccc1 recorded_endpoint=CC50 observed="190 µM"
